Source of measurements: PubChem BioAssay (NCATS)

# Lookup of reported activity change, negative = cytotoxicity keyed by entry
assay name: Cell Viability - N2a (AID 540);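 note: cells exposed to compound for 40 h at 37 °C; plate controls were DMSO alone for no effect and tamoxifen control for full effect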
test settings: N2a mouse neuroblastoma cell viability; at 92.2 µM (top of the series)
Records with an inconclusive call do not appear.
Field: numeric (%). Do not append units.

// known answers, use as guide
Fill blank: measured activity change, negative = cytotoxicity of the molecule CCCCOCCOP(=O)(OCCOCCCC)OCCOCCCC is ____.
-1.66

Fill blank: measured activity change, negative = cytotoxicity of the molecule C=C(C)C(=O)OCC1CO1 (configuration not stated) is ____.
-4.08

Fill blank: measured activity change, negative = cytotoxicity of the molecule ClCBr is ____.
-7.64

Fill blank: measured activity change, negative = cytotoxicity of the molecule CC(O)CCl (configuration not stated) is ____.
5.86

Fill blank: measured activity change, negative = cytotoxicity of the molecule Nc1ccc(Br)cc1 is ____.
-2.5

Fill blank: measured activity change, negative = cytotoxicity of the molecule C=CCc1ccc2c(c1)OCO2 is ____.
-3.41

Fill blank: measured activity change, negative = cytotoxicity of the molecule ClC(Cl)=C(c1ccc(Cl)cc1)c1ccc(Cl)cc1 is ____.
-14.6

Fill blank: measured activity change, negative = cytotoxicity of the molecule COC(=O)NC(=S)Nc1ccccc1NC(=S)NC(=O)OC is ____.
-2.43

More entries:
Fill blank: measured activity change, negative = cytotoxicity of the molecule OCC1CO1 (configuration not stated) is ____.
-10.8

Fill blank: measured activity change, negative = cytotoxicity of the molecule Nc1c(Cl)c(Cl)nc(C(=O)O)c1Cl is ____.
-4.43

Fill blank: measured activity change, negative = cytotoxicity of the molecule CCOc1ccc(N)cc1 is ____.
-4.95

Fill blank: measured activity change, negative = cytotoxicity of the molecule Cc1cccc([N+](=O)[O-])c1 is ____.
-15.4
